Hi there, I'd appreciate the recorded growth inhibition for every entry that follows.
Protocol notes: NCI Yeast Anticancer Drug Screen. Data for the rad14 strain (AID 159);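 also: 0% = growth of vehicle-treated control cultures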
Measurement context: S. cerevisiae rad14 strain growth inhibition; at 100.0 µM; hits give high values
This is part of a sample that, as a whole, favours compounds with a hit. Of some 79,000 tested, about 15% had one in any assay.
One number for each entry, in %.

Compound: COc1cc(O)c2c(O)c3c(c4c2c1[C@]1(C4)C(C)=CCCC1(C)C)[C@H](O)[C@@]1(O)CC(=O)C(C(N)=O)=C(O)[C@@]1(O)C3=O
Readout type: growth inhibition
Quantitative readout: 93
//
Compound: CC[C@@]1(O)C[C@H](OC2CC(N(C)C)C(O)C(C)O2)c2c(O)c3c(c(O)c2[C@H]1OC1CC(N(C)C)C(O)C(C)O1)C(=O)c1cccc(O)c1C3=O (some centres undefined)
Readout type: growth inhibition
Quantitative readout: 83
//
Compound: C/C(=N\NC(N)=O)C(CN1CCOCC1)C(c1ccccc1)c1c(O)c2ccccc2oc1=O (centres undefined)
Readout type: growth inhibition
Quantitative readout: 3
//
Compound: O=[N+]([O-])c1cc([As](Br)c2ccc(O)c([N+](=O)[O-])c2)ccc1O
Readout type: growth inhibition
Quantitative readout: 99
//
Compound: CCCCCCCCCCCCCCCCP(=O)(O)OCC(N)C(=O)O (centres undefined)
Readout type: growth inhibition
Quantitative readout: 93
//
Compound: OC(c1ccc(Br)cc1)C(Cl)(Cl)Cl (centres undefined)
Readout type: growth inhibition
Quantitative readout: 98
//
Compound: CCCCCCCCCC[Se]C#N
Readout type: growth inhibition
Quantitative readout: 99
//
Compound: CCc1cccc(C(C)C)c1NC1=C([n+]2ccc(C)cc2)C(=O)c2ccccc2C1=O
Readout type: growth inhibition
Quantitative readout: 21

Next compound, growth inhibition to be filled in.
Look up growth inhibition for this compound: `CC(C)(C)c1cc([N+](=O)[O-])cc([N+](=O)[O-])c1O`
29
